molecular target: HLA-A*0301 (human); experiment: iTopia off-rate
I'd appreciate it if you marked entries criterion met when t1/2 is lower than 2 and criterion not met when it is not.

These recorded examples may help you get a feel for the data.
Lab note: confirm whether the reported t1/2 for this binder is below 2, equality not counting. binder: LQLAAELGK [cdr2 28-36 LQLAAELGK] criterion met

Lab note: confirm whether the reported t1/2 for this binder is below 2, equality not counting. binder: ESHRKPLKR [cdr2 300-308 ESHRKPLKR] criterion met

Lab note: confirm whether the reported t1/2 for this binder is below 2, equality not counting. binder: GQGRRSPGK [cdr2 140-148 GQGRRSPGK] criterion met

Lab note: confirm whether the reported t1/2 for this binder is below 2, equality not counting. binder: PAPSFACLK [cdr2 154-162 PAPSFACLK] criterion not met

Lab note: confirm whether the reported t1/2 for this binder is below 2, equality not counting. binder: RQMNEQHAK [cdr2 74-82 RQMNEQHAK] criterion not met

Further cases:
Lab note: confirm whether the reported t1/2 for this binder is below 2, equality not counting. binder: VYDHVFAEK [cdr2 172-180 VYDHVFAEK] criterion met

Lab note: confirm whether the reported t1/2 for this binder is below 2, equality not counting. binder: HPFVNGVEK [cdr2 265-273 HPFVNGVEK] criterion met

Lab note: confirm whether the reported t1/2 for this binder is below 2, equality not counting. binder: AQLSLERQK [cdr2 207-215 AQLSLERQK] criterion met
